The measured values listed here are drawn from PubChem BioAssay AID1963851.

Test system: 188146-221-R-J1-PDC complex spheroid viability
methodNotes: Anticancer human tumor 188146-221-R-J1-PDC patient-derived colon adenocarcinoma cell line growth inhibition [POLQ]
assayContext: second compound 10 µM; first compound 1 µM; stronger effect = lower value
viability, T/C for assorted molecules

| molecule | systemUnderTest | viability, T/C, % |
| --- | --- | --- |
| CNCc1ccc(-c2[nH]c3cc(F)cc4c3c2CCNC4=O)cc1 + Cc1cccc(N(C)C(=O)C2C(O)CCN2c2nc(C)cc(C(F)(F)F)c2C#N)c1 | 188146-221-R-J1-PDC complex spheroid viability | 93.8 |
| Nc1ccn(C2OC(CO)C(O)C2(F)F)c(=O)n1 (stereo not given) + Nc1ccc(C#CCN(C(=O)Cc2ncc(C(F)(F)F)cc2C(F)(F)F)c2ccc(F)cc2)nn1 | 188146-221-R-J1-PDC complex spheroid viability | 19.1 |
| CNCc1ccc(-c2[nH]c3cc(F)cc4c3c2CCNC4=O)cc1 + COC1C(OC(N)=O)C(O)C(Oc2ccc3c(O)c(NC(=O)c4ccc(O)c(CC=C(C)C)c4)c(=O)oc3c2C)OC1(C)C | 188146-221-R-J1-PDC complex spheroid viability | 93.2 |
| C=CC(=O)N1CCN(c2nc(=O)n(-c3c(C)ccnc3C(C)C)c3nc(-c4c(O)cccc4F)c(F)cc23)C(C)C1 (stereo not given) + COC1C(OC(N)=O)C(O)C(Oc2ccc3c(O)c(NC(=O)c4ccc(O)c(CC=C(C)C)c4)c(=O)oc3c2C)OC1(C)C | 188146-221-R-J1-PDC complex spheroid viability | 97.5 |
| CCCS(=O)(=O)Nc1ccc(F)c(C(=O)c2c[nH]c3ncc(-c4ccc(Cl)cc4)cc23)c1F + Cc1cccc(N(C)C(=O)C2C(O)CCN2c2nc(C)cc(C(F)(F)F)c2C#N)c1 | 188146-221-R-J1-PDC complex spheroid viability | 85.1 |

---

viability, T/C for assorted compounds
System: 188146-221-R-J1-PDC complex spheroid viability
methodNotes: Anticancer human tumor 188146-221-R-J1-PDC cell line growth inhibition [POLQ];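 further: spheroids exposed to compounds for seven days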;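 on viability, T/C: 100% = DMSO vehicle control viability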
assayContext: second compound 10 µM; first compound 1 µM; stronger effect = lower value

| compound | viability, T/C, % |
| --- | --- |
| CCCS(=O)(=O)Nc1ccc(F)c(C(=O)c2c[nH]c3ncc(-c4ccc(Cl)cc4)cc23)c1F + COC1C(OC(N)=O)C(O)C(Oc2ccc3c(O)c(NC(=O)c4ccc(O)c(CC=C(C)C)c4)c(=O)oc3c2C)OC1(C)C | 78.2 |
| CNCc1ccc(-c2[nH]c3cc(F)cc4c3c2CCNC4=O)cc1 + Nc1ccc(C#CCN(C(=O)Cc2ncc(C(F)(F)F)cc2C(F)(F)F)c2ccc(F)cc2)nn1 | 108 |
| CCc1cc2c(N3CCc4c(cc(Cn5ccnc5)cc4-c4cn(C)nc4C(F)(F)F)C3=O)cc(C)nc2c(OC)n1 + Nc1ccc(C#CCN(C(=O)Cc2ncc(C(F)(F)F)cc2C(F)(F)F)c2ccc(F)cc2)nn1 | 84.8 |

---

System: 188146-221-R-J1-PDC complex spheroid viability
methodNotes: Anticancer human tumor 188146-221-R-J1-PDC cell line growth inhibition [POLQ];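 further: spheroids exposed to compounds for seven days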;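 on viability, T/C: 100% = DMSO vehicle control viability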
assayContext: second compound 10 µM; first compound 1 µM; stronger effect = lower value
Could you mark each record Satisfied if its viability, T/C falls strictly under 60%, and Not satisfied if it equals or exceeds it?

| compound | assignedClass |
| --- | --- |
| CCc1c2c(nc3ccc(O)cc13)-c1cc3c(c(=O)n1C2)COC(=O)[C@]3(O)CC + Nc1ccc(C#CCN(C(=O)Cc2ncc(C(F)(F)F)cc2C(F)(F)F)c2ccc(F)cc2)nn1 | Satisfied |
| COc1ccc([C@@H](O)c2cc(-c3ncnc4cc(N5CCOCC5)ccc34)c(F)cc2Cl)nn1 + Cc1cccc(N(C)C(=O)C2C(O)CCN2c2nc(C)cc(C(F)(F)F)c2C#N)c1 | Satisfied |
| CCCS(=O)(=O)Nc1ccc(F)c(C(=O)c2c[nH]c3ncc(-c4ccc(Cl)cc4)cc23)c1F + Nc1ccc(C#CCN(C(=O)Cc2ncc(C(F)(F)F)cc2C(F)(F)F)c2ccc(F)cc2)nn1 | Not satisfied |
| COc1ccc([C@@H](O)c2cc(-c3ncnc4cc(N5CCOCC5)ccc34)c(F)cc2Cl)nn1 + Nc1ccc(C#CCN(C(=O)Cc2ncc(C(F)(F)F)cc2C(F)(F)F)c2ccc(F)cc2)nn1 | Not satisfied |
| CC1COCCN1c1cc(-c2ccnn2C)c2ccnc(-c3ccn[nH]3)c2n1 (stereo not given) + COC1C(OC(N)=O)C(O)C(Oc2ccc3c(O)c(NC(=O)c4ccc(O)c(CC=C(C)C)c4)c(=O)oc3c2C)OC1(C)C | Satisfied |

---

Tested on: 188146-221-R-J1-PDC complex spheroid viability
methodNotes: Anticancer human tumor 188146-221-R-J1-PDC cell line growth inhibition [POLQ];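 further: spheroids exposed to compounds for seven days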;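 on viability, T/C: 100% = DMSO vehicle control viability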
assayContext: second compound 1 µM; first compound 0.001 µM; stronger effect = lower value
Experimental: Multicellular complex tumor spheroid response to Polymerase (POL) inhibitors (novobiocin, ART-558, RP6685) in combination with a variety of drugs and investigational agents in selected tumor cell lines The POL inhibitors (novobiocin, ART-558, and RP6685) were evaluated both individually and in combination with standard of care and investigational anticancer small molecules within a complex spheroid model of solid tumors. . […]
viability, T/C for assorted compounds

| compound | systemUnderTest | viability, T/C, % |
| --- | --- | --- |
| Cn1ncnc1[C@H]1c2n[nH]c(=O)c3cc(F)cc(c23)N[C@@H]1c1ccc(F)cc1 + Cc1cccc(N(C)C(=O)C2C(O)CCN2c2nc(C)cc(C(F)(F)F)c2C#N)c1 | 188146-221-R-J1-PDC complex spheroid viability | 99.6 |
| CC[C@@]1(O)C(=O)OCc2c1cc1n(c2=O)Cc2cc3c(CN(C)C)c(O)ccc3nc2-1 + COC1C(OC(N)=O)C(O)C(Oc2ccc3c(O)c(NC(=O)c4ccc(O)c(CC=C(C)C)c4)c(=O)oc3c2C)OC1(C)C | 188146-221-R-J1-PDC complex spheroid viability | 104 |
| CC[C@@]1(O)C(=O)OCc2c1cc1n(c2=O)Cc2cc3c(CN(C)C)c(O)ccc3nc2-1 + Cc1cccc(N(C)C(=O)C2C(O)CCN2c2nc(C)cc(C(F)(F)F)c2C#N)c1 | 188146-221-R-J1-PDC complex spheroid viability | 99 |
| Cn1ncnc1[C@H]1c2n[nH]c(=O)c3cc(F)cc(c23)N[C@@H]1c1ccc(F)cc1 + COC1C(OC(N)=O)C(O)C(Oc2ccc3c(O)c(NC(=O)c4ccc(O)c(CC=C(C)C)c4)c(=O)oc3c2C)OC1(C)C | 188146-221-R-J1-PDC complex spheroid viability | 113 |
| Cn1ncnc1[C@H]1c2n[nH]c(=O)c3cc(F)cc(c23)N[C@@H]1c1ccc(F)cc1 + Nc1ccc(C#CCN(C(=O)Cc2ncc(C(F)(F)F)cc2C(F)(F)F)c2ccc(F)cc2)nn1 | 188146-221-R-J1-PDC complex spheroid viability | 107 |
| CC[C@@]1(O)C(=O)OCc2c1cc1n(c2=O)Cc2cc3c(CN(C)C)c(O)ccc3nc2-1 + Nc1ccc(C#CCN(C(=O)Cc2ncc(C(F)(F)F)cc2C(F)(F)F)c2ccc(F)cc2)nn1 | 188146-221-R-J1-PDC complex spheroid viability | 102 |

---

Test system: 188146-221-R-J1-PDC complex spheroid viability
methodNotes: Anticancer human tumor 188146-221-R-J1-PDC cell line growth inhibition [POLQ];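 further: spheroids exposed to compounds for seven days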
assayContext: curve of first compound; second compound 3.16 µM
IC50 for assorted molecules

| molecule | valueRelationSign | IC50 (nM) |
| --- | --- | --- |
| O=c1[nH]cc(F)c(=O)[nH]1 + Cc1cccc(N(C)C(=O)C2C(O)CCN2c2nc(C)cc(C(F)(F)F)c2C#N)c1 | = | 1340 |
| CC(=O)O[C@H]1C(=O)[C@@]2(C)[C@H]([C@H](OC(=O)c3ccccc3)[C@]3(O)C[C@H](OC(=O)[C@H](O)[C@@H](NC(=O)c4ccccc4)c4ccccc4)C(C)=C1C3(C)C)[C@]1(OC(C)=O)CO[C@@H]1C[C@@H]2O + COC1C(OC(N)=O)C(O)C(Oc2ccc3c(O)c(NC(=O)c4ccc(O)c(CC=C(C)C)c4)c(=O)oc3c2C)OC1(C)C | = | 17.2 |
| COc1cccc2c1C(=O)c1c(O)c3c(c(O)c1C2=O)CC(O)(C(=O)CO)CC3OC1CC(N)C(O)C(C)O1 (stereo not given) + Nc1ccc(C#CCN(C(=O)Cc2ncc(C(F)(F)F)cc2C(F)(F)F)c2ccc(F)cc2)nn1 | = | 57.4 |
| O=c1[nH]cc(F)c(=O)[nH]1 + COC1C(OC(N)=O)C(O)C(Oc2ccc3c(O)c(NC(=O)c4ccc(O)c(CC=C(C)C)c4)c(=O)oc3c2C)OC1(C)C | = | 1790 |
| CCc1cc2c(N3CCc4c(cc(Cn5ccnc5)cc4-c4cn(C)nc4C(F)(F)F)C3=O)ccnc2c(OC)n1 + COC1C(OC(N)=O)C(O)C(Oc2ccc3c(O)c(NC(=O)c4ccc(O)c(CC=C(C)C)c4)c(=O)oc3c2C)OC1(C)C | > | 10000 |
| CC1COCCN1c1cc(C2(S(C)(=N)=O)CC2)nc(-c2ccnc3[nH]ccc23)n1 (stereo not given) + COC1C(OC(N)=O)C(O)C(Oc2ccc3c(O)c(NC(=O)c4ccc(O)c(CC=C(C)C)c4)c(=O)oc3c2C)OC1(C)C | = | 3450 |
| CC(=O)O[C@H]1C(=O)[C@@]2(C)[C@H]([C@H](OC(=O)c3ccccc3)[C@]3(O)C[C@H](OC(=O)[C@H](O)[C@@H](NC(=O)c4ccccc4)c4ccccc4)C(C)=C1C3(C)C)[C@]1(OC(C)=O)CO[C@@H]1C[C@@H]2O + Nc1ccc(C#CCN(C(=O)Cc2ncc(C(F)(F)F)cc2C(F)(F)F)c2ccc(F)cc2)nn1 | = | 10.5 |
| CC[C@@]1(O)C(=O)OCc2c1cc1n(c2=O)Cc2cc3c(CN(C)C)c(O)ccc3nc2-1 + Nc1ccc(C#CCN(C(=O)Cc2ncc(C(F)(F)F)cc2C(F)(F)F)c2ccc(F)cc2)nn1 | > | 100 |
| C=CCn1c(=O)c2cnc(Nc3ccc(N4CCN(C)CC4)cc3)nc2n1-c1cccc(C(C)(C)O)n1 + Cc1cccc(N(C)C(=O)C2C(O)CCN2c2nc(C)cc(C(F)(F)F)c2C#N)c1 | > | 1000 |
| COc1cc(C2c3cc4c(cc3C(OC3OC5COC(C)OC5C(O)C3O)C3COC(=O)C23)OCO4)cc(OC)c1O (stereo not given) + Cc1cccc(N(C)C(=O)C2C(O)CCN2c2nc(C)cc(C(F)(F)F)c2C#N)c1 | = | 664 |
| COc1cc(C2c3cc4c(cc3C(OC3OC5COC(C)OC5C(O)C3O)C3COC(=O)C23)OCO4)cc(OC)c1O (stereo not given) + Nc1ccc(C#CCN(C(=O)Cc2ncc(C(F)(F)F)cc2C(F)(F)F)c2ccc(F)cc2)nn1 | = | 625 |
| CC1COCCN1c1cc(C2(O)CC3CCC(C2)O3)c2cnn(-c3ccn[nH]3)c2n1 (stereo not given) + Cc1cccc(N(C)C(=O)C2C(O)CCN2c2nc(C)cc(C(F)(F)F)c2C#N)c1 | = | 259 |
| COc1cccc(OCCCN)c1-c1cc(Nc2cnc(C#N)cn2)n[nH]1 + Cc1cccc(N(C)C(=O)C2C(O)CCN2c2nc(C)cc(C(F)(F)F)c2C#N)c1 | = | 47.3 |
| CCc1cc2c(N3CCc4c(cc(Cn5ccnc5)cc4-c4cn(C)nc4C(F)(F)F)C3=O)ccnc2c(OC)n1 + Cc1cccc(N(C)C(=O)C2C(O)CCN2c2nc(C)cc(C(F)(F)F)c2C#N)c1 | = | 8270 |
| CC(C)n1c(=O)n(C)c2cnc3cc(F)c(-c4ccc(OCCCN5CCCCC5)nc4)cc3c21 + COC1C(OC(N)=O)C(O)C(Oc2ccc3c(O)c(NC(=O)c4ccc(O)c(CC=C(C)C)c4)c(=O)oc3c2C)OC1(C)C | > | 10000 |
| CC1COCCN1c1cc(C2(O)CC3CCC(C2)O3)c2cnn(-c3ccn[nH]3)c2n1 (stereo not given) + COC1C(OC(N)=O)C(O)C(Oc2ccc3c(O)c(NC(=O)c4ccc(O)c(CC=C(C)C)c4)c(=O)oc3c2C)OC1(C)C | = | 299 |
| CC1COCCN1c1cc(C2(O)CC3CCC(C2)O3)c2cnn(-c3ccn[nH]3)c2n1 (stereo not given) + Nc1ccc(C#CCN(C(=O)Cc2ncc(C(F)(F)F)cc2C(F)(F)F)c2ccc(F)cc2)nn1 | = | 289 |
| Nc1ccn(C2OC(CO)C(O)C2(F)F)c(=O)n1 (stereo not given) + Cc1cccc(N(C)C(=O)C2C(O)CCN2c2nc(C)cc(C(F)(F)F)c2C#N)c1 | < | 31.6 |
| Cn1ncnc1[C@H]1c2n[nH]c(=O)c3cc(F)cc(c23)N[C@@H]1c1ccc(F)cc1 + Nc1ccc(C#CCN(C(=O)Cc2ncc(C(F)(F)F)cc2C(F)(F)F)c2ccc(F)cc2)nn1 | > | 100 |
| CCc1c2c(nc3ccc(O)cc13)-c1cc3c(c(=O)n1C2)COC(=O)[C@]3(O)CC + COC1C(OC(N)=O)C(O)C(Oc2ccc3c(O)c(NC(=O)c4ccc(O)c(CC=C(C)C)c4)c(=O)oc3c2C)OC1(C)C | = | 21.1 |
